- test.system: Neutrophil elastase (Homo sapiens, UniProt P08246)
- Sequence (P08246 whole entry): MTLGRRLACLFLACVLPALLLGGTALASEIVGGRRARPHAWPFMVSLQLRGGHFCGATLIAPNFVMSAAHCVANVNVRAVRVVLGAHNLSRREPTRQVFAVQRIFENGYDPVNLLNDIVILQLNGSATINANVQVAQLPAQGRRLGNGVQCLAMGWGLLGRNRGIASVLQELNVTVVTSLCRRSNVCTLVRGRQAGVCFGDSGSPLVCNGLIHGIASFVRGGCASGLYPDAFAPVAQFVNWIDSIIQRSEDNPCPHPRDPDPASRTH
- measurement.notes: Binding affinity for human leukocyte elastase
Item-by-item account of Ki

compound: COC(=O)c1ccc2oc(C(=O)[C@@H](NC(=O)[C@@H]3CCCN3C(=O)[C@@H](NC(=O)OCc3ccccc3)C(C)C)C(C)C)nc2c1
Ki / nM: 0.58

compound: CCCCOC(=O)NCC(F)(F)C(=O)[C@@H](NC(=O)[C@@H]1CCCN1C(=O)[C@@H](NC(=O)OCc1ccccc1)C(C)C)C(C)C
Ki / nM: 1.1

compound: CC(C)[C@H](NC(=O)OC1CCCC1)C(=O)N1CCC[C@H]1C(=O)N[C@H](C(=O)C(F)(F)F)C(C)C
Ki / nM: 1.9

compound: CCOC(=O)N[C@H](C(=O)N1CCC[C@H]1C(=O)N[C@H](C(=O)C(F)(F)F)C(C)C)C(C)C
Ki / nM: 43

compound: CC(=O)NCC(F)(F)C(=O)[C@@H](NC(=O)[C@@H]1CCCN1C(=O)[C@@H](NC(=O)Oc1ccccc1)C(C)C)C(C)C
Ki / nM: 2.3

compound: CCCCOC(=O)NCC(F)(F)C(=O)[C@@H](NC(=O)[C@@H]1CCCN1C(=O)[C@@H](NC(=O)c1ccc(OC)cc1)C(C)C)C(C)C
Ki / nM: 3.4

compound: CCCNC(=O)C(F)(F)C(=O)[C@@H](NC(=O)[C@@H]1CCCN1C(=O)[C@@H](NC(=O)c1ccc(OC)cc1)C(C)C)C(C)C
Ki / nM: 8.9

* * *

- measurement.notes: Oral integrated area under the concentration vs time curve, for compound in dog plasma
- Type: ADME, organism-based, Canis lupus familiaris
Where a SMILES comes first, the peptide text is derived from it. The star is where a group is joined. CF3 = FC(F)(F)*; Moc = COC(=O)*

compound: COC(=O)N[C@H](C(=O)N1CCC[C@H]1C(=O)N[C@H](C(=O)C(F)(F)F)C(C)C)C(C)C (Moc-Val-Pro-Val-CF3)
AUC [ng·h/mL]: 6540

compound: COc1ccc(C(=O)N[C@H](C(=O)N2CCC[C@H]2C(=O)N[C@H](C(=O)C(F)(F)F)C(C)C)C(C)C)cc1 (stereo in doubt; 1k)
AUC [ng·h/mL]: 1250

* * *

- test.system: Serine protease 1 (Homo sapiens)
- Sequence (P07477 whole entry): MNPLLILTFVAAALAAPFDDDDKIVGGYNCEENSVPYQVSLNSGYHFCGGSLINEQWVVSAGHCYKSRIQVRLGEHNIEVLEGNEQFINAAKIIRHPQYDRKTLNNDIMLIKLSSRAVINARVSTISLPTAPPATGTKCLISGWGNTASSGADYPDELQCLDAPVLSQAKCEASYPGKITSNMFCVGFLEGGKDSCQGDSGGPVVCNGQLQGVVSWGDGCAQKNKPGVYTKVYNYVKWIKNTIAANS
- measurement.notes: Binding affinity for human pancreatic trypsin
pKi: −log10 of the molar value. Where a SMILES comes first, the peptide text is derived from it. The star is where a group is joined. CF3 = FC(F)(F)*; Moc = COC(=O)*
experimental.endpoint: pKi

compound: COC(=O)N[C@H](C(=O)N1CCC[C@H]1C(=O)N[C@H](C(=O)C(F)(F)F)C(C)C)C(C)C (Moc-Val-Pro-Val-CF3)
experimental.endpoint: pKi
number: 4.18

* * *

- measurement.notes: Intravenous integrated area under the concentration vs time curve, for compound in rat plasma
- Type: ADME, organism-based
Where a SMILES comes first, the peptide text is derived from it. The star is where a group is joined. CF3 = FC(F)(F)*; Moc = COC(=O)*
Item-by-item account of AUC
experimental.endpoint: AUC

compound: COc1ccc(C(=O)N[C@H](C(=O)N2CCC[C@H]2C(=O)N[C@H](C(=O)C(F)(F)F)C(C)C)C(C)C)cc1 (stereo in doubt; 1k)
experimental.endpoint: AUC
result: 1700 ng·h/mL
--
compound: COC(=O)N[C@H](C(=O)N1CCC[C@H]1C(=O)N[C@H](C(=O)C(F)(F)F)C(C)C)C(C)C (Moc-Val-Pro-Val-CF3)
experimental.endpoint: AUC
result: 6540 ng·h/mL
